system: target microorganisms; assay: Screen of synthesized peptides for binding to target microorganisms (targeting peptides, Tables 2 and 3); details: microorganism(s) the targeting peptide was identified as binding to (Table 3)
experimental.readout: Target(s)

These recorded examples may help you get a feel for the data.
In [3]: df
Out[3]:
                                  substance  experimental_readout         result
0  1T-74 (DIDWGRKISCAAGVAYGAIDGCATTV; synthetic novel tartgeting peptide IT-74)             Target(s)  S. pneumoniae
1  1T-84 (FRKKRYGLSILLWLNAFTNLVNSIHAFYMTLF; synthetic novel tartgeting peptide IT-84)             Target(s)  S. pneumoniae
2  1T-154 (YFSFLEIVGMARR; synthetic novel tartgeting peptide IT-154)             Target(s)  P. gingivalis
3  1T-82 (FGVGVGIALFMAGYAIGKDLRKKFGKSC; synthetic novel tartgeting peptide IT-82)             Target(s)  S. pneumoniae
4  1T-78 (FFKTIFVLILGALGVAAGLYIEKNYIDK; synthetic novel tartgeting peptide IT-78)             Target(s)  S. pneumoniae

QUERY: Quick one: Target(s) for 1T-15 (DVILRVEAQ; synthetic novel tartgeting peptide IT-15) ?
RESULT: S. mutans

QUERY: Record request: Target(s) value, item 1T-28 (VSRDEAMEFIDREWTTLQPAGKSHA; synthetic novel tartgeting peptide IT-28)
RESULT: P. aeruginosa

QUERY: Reported Target(s), substance 1T-8 (FSVAACGEQRAVTFVLLIEDLI; synthetic novel tartgeting peptide IT-8) : ____
RESULT: M. xanthus

QUERY: I am curious: what Target(s) value has been reported for 1T-117 (GPGVVGPAPFSRLPAHALNL; synthetic novel tartgeting peptide IT-117) ?
RESULT: S. mutans

QUERY: Param item = 1T-35 (EICLTLVFPIRGSYSEAAKFPVPIHIVEDGTVELPK; synthetic novel tartgeting peptide IT-35) ; retrieve measured Target(s).
RESULT: P. aeruginosa

QUERY: Which value of Target(s) has been reported for 1T-83 (QKPRKNETFIGYIQRYDIDGNGYQSLPCPQN; synthetic novel tartgeting peptide IT-83) in the records?
RESULT: S. pneumoniae

QUERY: Name the reported Target(s) value associated with the substance 1T-75 (GVARGLQLGIKTRTQWGAATGAA; synthetic novel tartgeting peptide IT-75)
RESULT: S. pneumoniae

QUERY: # get_value(readout='Target(s)', item= 1T-57 (RLEYRRLETQVEENPESGRRPMRG; synthetic novel tartgeting peptide IT-57) )
RESULT: P. aeruginosa

QUERY: // lookup Target(s) for 1T-1 (YVNYNQSFNSGW; synthetic novel tartgeting peptide IT-1)
RESULT: S. mutans

QUERY: Which measured Target(s) value corresponds to 1T-112 (SDNDGKLILGTSQ; synthetic novel tartgeting peptide IT-112) ?
RESULT: S. gordonii

QUERY: Could you share which Target(s) value was measured for 1T-89 (HEDDKRRGMSVEVLGFEVVQHEE; synthetic novel tartgeting peptide IT-89) ?
RESULT: S. mitis, S. mutans

QUERY: Would you kindly share the measured Target(s) for 1T-58 (CDDLHALERAGKLDALLSA; synthetic novel tartgeting peptide IT-58) ?
RESULT: P. aeruginosa

QUERY: Name the recorded Target(s) for 1T-9 (WAWAESPRCVSTRSNIHALAFRVEVAALT; synthetic novel tartgeting peptide IT-9) .
RESULT: M. xanthus

QUERY: Look at this substance and give its reported Target(s). 1T-170 (AYGKVFSMDIMLSENDKLIVLRISHHSAWH; synthetic novel tartgeting peptide IT-170)
RESULT: P. gingivalis

QUERY: Quick check: Target(s) of 1T-24 (EEAEEKLAEVSQAVKRLVR; synthetic novel tartgeting peptide IT-24) ?
RESULT: P. aeruginosa

QUERY: Target(s) lookup needed for 1T-123 (LVRRNAVAGRSDGLAGAEQLDLVRLQGVL; synthetic novel tartgeting peptide IT-123) , thanks.
RESULT: S. gordonii

QUERY: Looking for the measured Target(s) of 1T-50 (HSDEPIPNILFKSDSVH; synthetic novel tartgeting peptide IT-50) , can you help?
RESULT: P. aeruginosa

QUERY: What does the record list as Target(s) for 1T-92 (GQDEGQRRAGVGEGQGVDG; synthetic novel tartgeting peptide IT-92) ?
RESULT: S. mitis, S. mutans

QUERY: Please give the measured Target(s) for this substance: 1T-72 (EPTDGVACKER; synthetic novel tartgeting peptide IT-72)
RESULT: P. aeruginosa

QUERY: Look up Target(s): 1T-61 (HATLLPAVREAISRQLLPALVPRG; synthetic novel tartgeting peptide IT-61)
RESULT: P. aeruginosa
